- tested.target: Transient receptor potential cation channel subfamily V member 1 (Rattus norvegicus)
- assay.name: Antagonist activity against acid-induced 45calcium ion uptake in CHO cells expressing rat TRPV1 at pH5
- Format: functional, cell-based
Task for the reader: assign each of the following compounds its reported pIC50.
Notebook: values listed as pIC50 are -log10 of the concentration (mol/L).

Req: Record request: pIC50 value, item C[C@@H]1CN(c2nc3c(-c4cc(F)c(F)c(F)c4)cc(C(F)(F)F)cc3[nH]2)CCN1c1ncccc1Br
Resp: 8.74

Req: Record request: pIC50 value, item FC(F)(F)c1ccc2[nH]c(N3CCN(c4ccncc4Cl)CC3)nc2c1
Resp: 5.10

Req: Record request: pIC50 value, item FC(F)(F)c1ccc(CNc2cc3[nH]c(N4CCN(c5ncccc5C(F)(F)F)CC4)nc3cc2C(F)(F)F)cc1
Resp: 6.85

Req: Record request: pIC50 value, item FC(F)(F)c1ccc2[nH]c(N3CCN(c4ncccc4C(F)(F)F)CC3)nc2n1
Resp: 5.85

Req: Record request: pIC50 value, item CC(O)c1cnc(N2CCN(c3nc4ccc(C(F)(F)F)cc4[nH]3)CC2)c(Cl)c1 (racemic)
Resp: 6.19

Req: Record request: pIC50 value, item C=Cc1cnc(N2CCN(c3nc4c(-c5cc(F)c(F)c(F)c5)cc(C(F)(F)F)cc4[nH]3)[C@H](C)C2)c(Cl)c1
Resp: 8.77

Req: Record request: pIC50 value, item FC(F)(F)c1cc(N2CCOCC2)c2[nH]c(N3CCN(c4ncccc4C(F)(F)F)CC3)nc2c1
Resp: 7.02

Req: Record request: pIC50 value, item FC(F)(F)c1cccnc1N1CCN(c2nc3ccc(Br)cc3[nH]2)CC1
Resp: 6.71

Req: Record request: pIC50 value, item FC(F)(F)c1cc(N2CCCCC2)c2[nH]c(N3CCN(c4ncccc4C(F)(F)F)CC3)nc2c1
Resp: 7.68

Req: Record request: pIC50 value, item C[C@@H]1CN(c2ncc(CO)cc2Cl)CCN1c1nc2cc(C(F)(F)F)cc(NC(=O)C3CCCCC3)c2[nH]1
Resp: 8.92

Req: Record request: pIC50 value, item C[C@@H]1CN(c2ncc([C@@H](C)O)cc2Cl)CCN1c1nc2c(-c3cc(F)c(F)c(F)c3)cc(C(F)(F)F)cc2[nH]1
Resp: 8.64

Req: Record request: pIC50 value, item CC(O)c1cnc(N2CCN(c3nc4c(-c5cc(F)c(F)c(F)c5)cc(C(F)(F)F)cc4[nH]3)[C@H](C)C2)c(C(F)(F)F)c1 (mixture of isomers)
Resp: 9.00

Req: Record request: pIC50 value, item FC(F)(F)c1ccc2[nH]c(N3CCN(c4c(Cl)cccc4Cl)CC3)nc2c1
Resp: 5.90

Req: Record request: pIC50 value, item C[C@@H]1CN(c2ncc(C(=O)O)cc2Cl)CCN1c1nc2c(-c3cc(F)c(F)c(F)c3)cc(C(F)(F)F)cc2[nH]1
Resp: 7.57

* * *

- tested.target: Transient receptor potential cation channel subfamily V member 1 (Rattus norvegicus, UniProt O35433)
- Sequence (O35433 whole entry): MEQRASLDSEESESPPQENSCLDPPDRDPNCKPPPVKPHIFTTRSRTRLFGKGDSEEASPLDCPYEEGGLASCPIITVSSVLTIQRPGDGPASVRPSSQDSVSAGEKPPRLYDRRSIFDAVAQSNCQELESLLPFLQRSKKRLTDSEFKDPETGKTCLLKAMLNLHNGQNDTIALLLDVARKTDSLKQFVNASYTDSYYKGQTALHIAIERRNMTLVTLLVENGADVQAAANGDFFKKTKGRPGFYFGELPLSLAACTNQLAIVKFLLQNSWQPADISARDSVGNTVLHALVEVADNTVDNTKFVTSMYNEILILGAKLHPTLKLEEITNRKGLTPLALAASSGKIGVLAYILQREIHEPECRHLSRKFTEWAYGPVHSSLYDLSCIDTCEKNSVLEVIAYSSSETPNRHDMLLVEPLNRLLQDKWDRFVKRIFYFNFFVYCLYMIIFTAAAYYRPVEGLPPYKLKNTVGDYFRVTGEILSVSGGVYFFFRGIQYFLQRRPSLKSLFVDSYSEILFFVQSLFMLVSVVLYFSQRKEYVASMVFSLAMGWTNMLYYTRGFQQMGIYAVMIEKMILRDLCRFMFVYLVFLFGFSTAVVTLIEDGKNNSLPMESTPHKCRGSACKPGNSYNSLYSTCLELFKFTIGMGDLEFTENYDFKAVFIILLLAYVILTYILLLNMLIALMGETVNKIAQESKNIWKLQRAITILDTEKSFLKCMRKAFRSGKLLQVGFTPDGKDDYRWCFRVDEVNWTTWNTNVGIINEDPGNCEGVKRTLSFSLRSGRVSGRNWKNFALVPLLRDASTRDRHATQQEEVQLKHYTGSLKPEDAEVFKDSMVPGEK
- assay.name: Antagonist activity against capsaicin-induced 45calcium ion uptake in CHO cells expressing rat TRPV1
- Type: functional, cell-based
pIC50: −log10 of the molar value.
Returns met if the recorded pIC50 is greater than or equal to 6, and not met otherwise.

Req: Is reported pIC50 greater than or equal to 6 here: FC(F)(F)c1cc(Br)c2nc(N3CCN(c4ncccc4C(F)(F)F)CC3)[nH]c2c1
Resp: met

Req: Is reported pIC50 greater than or equal to 6 here: NC(=O)c1cnc(N2CCN(c3nc4cc(C(F)(F)F)ccc4[nH]3)CC2)c(Cl)c1
Resp: met

Req: Is reported pIC50 greater than or equal to 6 here: CC[C@@H]1CN(c2ncccc2C(F)(F)F)CCN1c1nc2cc(C(F)(F)F)ccc2[nH]1
Resp: met

Req: Is reported pIC50 greater than or equal to 6 here: Nc1ccc(-c2cc(C(F)(F)F)cc3[nH]c(N4CCN(c5ncccc5C(F)(F)F)CC4)nc23)cc1
Resp: not met

Req: Is reported pIC50 greater than or equal to 6 here: FC(F)(F)c1cnc2nc(N3CCN(c4ncccc4C(F)(F)F)CC3)[nH]c2c1
Resp: not met

Req: Is reported pIC50 greater than or equal to 6 here: CC(O)c1cnc(N2CCN(c3nc4c(-c5cc(F)c(F)c(F)c5)cc(C(F)(F)F)cc4[nH]3)[C@H](C)C2)c(C(F)(F)F)c1 (mixture of isomers)
Resp: met

Req: Is reported pIC50 greater than or equal to 6 here: O=[N+]([O-])c1cc(C(F)(F)F)cc2[nH]c(N3CCN(c4ncccc4C(F)(F)F)CC3)nc12
Resp: not met

Req: Is reported pIC50 greater than or equal to 6 here: N#Cc1cccnc1N1CCN(c2nc3cc(C(F)(F)F)ccc3[nH]2)CC1
Resp: not met

Req: Is reported pIC50 greater than or equal to 6 here: OCc1cnc(N2CCN(c3nc4ccc(C(F)(F)F)cc4[nH]3)CC2)c(Cl)c1
Resp: met

Req: Is reported pIC50 greater than or equal to 6 here: CC(C)(C)c1ccc2nc(N3CCN(c4ncccc4Cl)CC3)[nH]c2c1
Resp: met

Req: Is reported pIC50 greater than or equal to 6 here: CC(O)c1cnc(N2CCN(c3nc4ccc(C(F)(F)F)cc4[nH]3)CC2)c(Cl)c1 (racemic)
Resp: met

Req: Is reported pIC50 greater than or equal to 6 here: FC(F)(F)c1ccc2[nH]c(N3CCN(c4ccncc4Cl)CC3)nc2c1
Resp: not met

Req: Is reported pIC50 greater than or equal to 6 here: FC(F)(F)c1cc(-c2cccs2)c2[nH]c(N3CCN(c4ncccc4C(F)(F)F)CC3)nc2c1
Resp: met

Req: Is reported pIC50 greater than or equal to 6 here: C[C@@H]1CN(c2ncc(CO)cc2Cl)CCN1c1nc2cc(C(F)(F)F)cc(NC(=O)C3CCCCC3)c2[nH]1
Resp: met

Req: Is reported pIC50 greater than or equal to 6 here: Cc1cccnc1N1CCN(c2nc3ccc(C(F)(F)F)cc3[nH]2)CC1
Resp: met

Req: Is reported pIC50 greater than or equal to 6 here: FC(F)(F)c1cc(-c2ccccc2)c2nc(N3CCN(c4ncccc4C(F)(F)F)CC3)[nH]c2c1
Resp: met

Req: Is reported pIC50 greater than or equal to 6 here: C[C@@H]1CN(c2ncc(CO)cc2Cl)CCN1c1nc2c(N(Cc3ccccc3)Cc3ccccc3)cc(C(F)(F)F)cc2[nH]1
Resp: met

Req: Is reported pIC50 greater than or equal to 6 here: C[C@H](O)c1cnc(N2CCN(c3nc4c(-c5cc(F)c(F)c(F)c5)cc(C(F)(F)F)cc4[nH]3)[C@H](C)C2)c(Cl)c1
Resp: met

Req: Is reported pIC50 greater than or equal to 6 here: C[C@@H]1CN(c2ncc(C(O)CO)cc2Cl)CCN1c1nc2c(-c3cc(F)c(F)c(F)c3)cc(C(F)(F)F)cc2[nH]1 (mixture of isomers)
Resp: met

Req: Is reported pIC50 greater than or equal to 6 here: FC(F)(F)c1ccc2[nH]c(N3CCN(c4ncccc4I)CC3)nc2c1
Resp: met

Req: Is reported pIC50 greater than or equal to 6 here: COC(=O)c1cnc(N2CCN(c3nc4c(-c5cc(F)c(F)c(F)c5)cc(C(F)(F)F)cc4[nH]3)[C@H](C)C2)c(Cl)c1
Resp: met

Req: Is reported pIC50 greater than or equal to 6 here: FC(F)(F)c1ccc2[nH]c(N3CCN(c4c(Cl)cccc4Cl)CC3)nc2c1
Resp: not met

Req: Is reported pIC50 greater than or equal to 6 here: FC(F)(F)c1ccc2nc(N3CCN(c4ncccc4C(F)(F)F)CC3)n(Cc3ccccc3)c2c1
Resp: met

Req: Is reported pIC50 greater than or equal to 6 here: FC(F)(F)c1cc(C(F)(F)F)c2[nH]c(N3CCN(c4ncccc4C(F)(F)F)CC3)nc2c1
Resp: met

Req: Is reported pIC50 greater than or equal to 6 here: CC(=O)c1cnc(N2CCN(c3nc4cc(C(F)(F)F)ccc4[nH]3)CC2)c(Cl)c1
Resp: met

Req: Is reported pIC50 greater than or equal to 6 here: C[C@@H]1CN(c2ncc(Br)cc2Cl)CCN1c1nc2c(-c3cc(F)c(F)c(F)c3)cc(C(F)(F)F)cc2[nH]1
Resp: met

Req: Is reported pIC50 greater than or equal to 6 here: FC(F)(F)c1ccnc(N2CCN(c3nc4cc(C(F)(F)F)ccc4[nH]3)CC2)c1
Resp: not met

Req: Is reported pIC50 greater than or equal to 6 here: Fc1cc(-c2cc(C(F)(F)F)cc3[nH]c(N4CCN(c5ncccc5C(F)(F)F)CC4)nc23)cc(F)c1F
Resp: met

Req: Is reported pIC50 greater than or equal to 6 here: CNC(=O)c1cnc(N2CCN(c3nc4ccc(C(F)(F)F)cc4[nH]3)CC2)c(Cl)c1
Resp: met

Req: Is reported pIC50 greater than or equal to 6 here: Fc1ccc2[nH]c(N3CCN(c4ncccc4C(F)(F)F)CC3)nc2c1
Resp: not met

Req: Is reported pIC50 greater than or equal to 6 here: FC(F)(F)c1cc(-c2cc3ccccc3s2)c2nc(N3CCN(c4ncccc4C(F)(F)F)CC3)[nH]c2c1
Resp: met

Req: Is reported pIC50 greater than or equal to 6 here: FC(F)(F)c1ccc2[nH]c(N3CCN(c4cccc(C(F)(F)F)n4)CC3)nc2c1
Resp: not met

Req: Is reported pIC50 greater than or equal to 6 here: FC(F)(F)c1cccnc1N1CCN(c2nc3ccc(Br)cc3[nH]2)CC1
Resp: met

Req: Is reported pIC50 greater than or equal to 6 here: N#Cc1ccc2[nH]c(N3CCN(c4ncccc4C(F)(F)F)CC3)nc2c1
Resp: not met

Req: Is reported pIC50 greater than or equal to 6 here: C[C@@H]1CN(c2ncccc2Br)CCN1c1nc2c(-c3cc(F)c(F)c(F)c3)cc(C(F)(F)F)cc2[nH]1
Resp: met

Req: Is reported pIC50 greater than or equal to 6 here: C[C@@H]1CN(c2ncc(NC(=O)CO)cc2Cl)CCN1c1nc2c(-c3ccc(F)cc3)cc(C(F)(F)F)cc2[nH]1
Resp: met
